- Test system: SHEP cells
- MEASUREMENT_NOTES: Primary functional miRNA mimic screen, CellTiter-Glo cell viability
- Assay type: cell-based
- CONDITION_SET: miRNA mimic 25 nM alone, 144 hours post-transfection
Below, each entry is listed with its recorded Primary screen Viability (% of control) SHEP.
REPORTED_PROPERTY: Primary screen Viability (% of control) SHEP

> print(dat)
                                   substance           result
 1  hsa-miR-489 (guide GUGACAUCACAUAUACGGCAGC; chemistry not given here; listed as Homo sapiens)  40 % of control
 2  hsa-miR-542-3p (guide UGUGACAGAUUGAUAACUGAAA; chemistry not given here; listed as Homo sapiens)  29 % of control
 3  hsa-miR-148b-5p (AAGUUCUGUUAUACACUCAGGC; chemistry not given here; listed as Homo sapiens)  20 % of control
 4  hsa-miR-634 (guide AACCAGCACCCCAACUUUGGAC; chemistry not given here; listed as Homo sapiens)   8 % of control
 5  hsa-miR-192-3p (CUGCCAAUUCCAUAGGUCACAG; chemistry not given here; listed as Homo sapiens)  43 % of control
 6  hsa-miR-1262 (AUGGGUGAAUUUGUAGAAGGAU; chemistry not given here; listed as Homo sapiens)  31 % of control
 7  hsa-miR-552 (guide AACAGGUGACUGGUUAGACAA; chemistry not given here; listed as Homo sapiens)  36 % of control
 8  hsa-miR-550a-3p (guide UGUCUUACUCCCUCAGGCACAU; chemistry not given here; listed as Homo sapiens)  61 % of control
 9  hsa-miR-517c-3p (guide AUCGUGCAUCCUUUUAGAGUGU; chemistry not given here; listed as Homo sapiens)  40 % of control
10  hsa-miR-1231 (GUGUCUGGGCGGACAGCUGC; chemistry not given here; listed as Homo sapiens)  15 % of control
11  hsa-miR-544a (guide AUUCUGCAUUUUUAGCAAGUUC; chemistry not given here; listed as Homo sapiens)  32 % of control
12  hsa-miR-654-5p (guide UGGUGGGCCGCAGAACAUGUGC; chemistry not given here; listed as Homo sapiens)  30 % of control
13  hsa-miR-892b (guide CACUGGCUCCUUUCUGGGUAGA; chemistry not given here; listed as Homo sapiens)  30 % of control
14  hsa-miR-876-3p (guide UGGUGGUUUACAAAGUAAUUCA; chemistry not given here; listed as Homo sapiens)  94 % of control
15  hsa-miR-491-3p (guide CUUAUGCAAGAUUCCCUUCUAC; chemistry not given here; listed as Homo sapiens)  26 % of control
16  hsa-miR-101-3p (UACAGUACUGUGAUAACUGAA; chemistry not given here; listed as Homo sapiens)  58 % of control
17  hsa-miR-103a-2-5p (AGCUUCUUUACAGUGCUGCCUUG; chemistry not given here; listed as Homo sapiens)  46 % of control

Where these numbers come from: patent US20190300882A1
